Origin of values: patent US9789096B2

System: HCC44
Assay: Cell viability dose-response, HCC44
Format: cell-based, human
Details: Homo sapiens, HCC44, 12-point dose-response starting at 50 micromolar, 3-fold increments, in duplicate; read-out: toxicity data, HCC44
resultType: pIC50
The scale used: pIC50 is minus the common logarithm of the concentration in molar units.

Examples from the recorded data:
COc1ccccc1C(=O)c1ccc(C(=O)NC(=O)NCCc2ccc(O)cc2)cc1 [SW208580-1-A] :: 5.09
O=C(NCCc1ccc(O)cc1)NC(=O)c1ccc(Nc2ccccc2)cc1 [SW208562-1-A] :: 4.91
COc1ccc(CCCC(=O)Nc2ccc(C(=O)c3ccccc3)cc2)cc1 [SW208470-1-A] :: 4.46
COc1ccc(CCNC(=O)NC(=O)c2ccc(Oc3ccccc3)cc2)cc1 [SW208456-1-A] :: 7.66
COc1ccc(CC(=O)Nc2ccc(C(=O)c3ccccc3)cc2)cc1 [SW208583-1-A] :: 5.37

Return reported pIC50; argument: COc1ccc(CCNC(=O)NC(=O)c2ccc(Cl)cc2)cc1 [SW208401-1-A]
6.27

Now this one: COc1ccc(CCNC(=O)NC(=O)c2ccc(OCc3ccccc3)cc2)cc1 [SW208457-1-A]
7.64

Now this one: COc1ccc(CCNC(=O)NC(=O)c2ccc(Br)cc2)cc1 [SW208388-1-A]
6.38
